- System: P93_24
- protocolNotes: qHTS profiling for inhibitors of Plasmodium falciparum proliferation (AID 504749); note: nearly all actives have a fitted effect of over 60% in size
- cond: P. falciparum in erythrocytes, SYBR Green DNA, 72 h; series mostly up to 12.8 µM
Results filed as inconclusive are left out. The source made the active and inactive calls. Calls come from the whole dose curve; as a rule, active = well fitted inhibition curve with a large enough effect; inconclusive = small, poorly fitted or top-dose-only effect; inactive = flat fitted curve, though single readings scatter.
A correct response names exactly one class from active, inactive

Previously resolved entries follow.
compound	category
O=C(c1ccccc1)c1ccc2n1CC[C@H]2C(=O)O	inactive
CC1(C)O[C@@H]2C[C@H]3[C@H]4C[C@H](F)C5=CC(=O)C=C[C@@]5(C)[C@@H]4[C@H](O)C[C@]3(C)[C@]2(C(=O)CO)O1	inactive
CC1(C)S[C@@H]2[C@H](NC(=O)[C@H](C(=O)O)c3ccsc3)C(=O)N2[C@H]1C(=O)O	inactive
CCN1C(=O)N[C@@H](c2ccccc2)C1=O	inactive

Incoming: Please let me know the test result on file for COc1ccc(C[C@@H]2c3cc(OC)c(OC)cc3CC[N@+]2(C)CCC(=O)OCCCCCOC(=O)CC[N@@+]2(C)CCc3cc(OC)c(OC)cc3[C@H]2Cc2ccc(OC)c(OC)c2)cc1OC .
Outgoing: inactive

Incoming: Please let me know the test result on file for CCN[C@@H]1C[C@H](C)S(=O)(=O)c2sc(S(N)(=O)=O)cc21 .
Outgoing: inactive

Incoming: Please let me know the test result on file for CC(C)NC[C@H](O)c1cc(O)cc(O)c1 .
Outgoing: inactive

Incoming: Please let me know the test result on file for C[N+](C)(C)CC(O)CC(=O)O (configuration not stated) .
Outgoing: inactive

Incoming: Please let me know the test result on file for NC(=O)c1cc[n+](CC2=C(C(=O)O)N3C(=O)[C@@H](NC(=O)[C@H](c4ccccc4)S(=O)(=O)[O-])[C@@H]3SC2)cc1 .
Outgoing: active

----------
- System: CP247
- protocolNotes: qHTS profiling for inhibitors of Plasmodium falciparum proliferation (AID 504749); note: nearly all actives have a fitted effect of over 60% in size
- cond: P. falciparum in erythrocytes, SYBR Green DNA, 72 h; series mostly up to 12.8 µM
Results filed as inconclusive are left out. Activity calls are given as the source filed them. Calls come from the whole dose curve; as a rule, active = well fitted inhibition curve with a large enough effect; inconclusive = small, poorly fitted or top-dose-only effect; inactive = flat fitted curve, though single readings scatter.
A correct response names exactly one class from active, inactive

Previously resolved entries follow.
molecule	category
CCn1cc(C(=O)O)c(=O)c2cc(F)c(N3CCN[C@@H](C)C3)c(F)c21	inactive
CN(C)[C@H]1C(=O)C(C(=O)NCN2CCCC2)=C(O)[C@]2(O)C(=O)C3=C(O)c4c(O)cccc4[C@@](C)(O)[C@H]3C[C@@H]12	inactive
Cn1c(=O)c2c(ncn2C[C@@H](O)CO)n(C)c1=O	inactive
C[C@@H](CN(C)C)CN1c2ccccc2CCc2ccccc21	inactive
NC(=O)OC[C@H](O)COc1ccc(Cl)cc1	inactive
CO[C@H]1C[C@@H](O[C@@H]2[C@H](C)[C@H](O[C@@H]3O[C@@H](C)C[C@@H](N(C)C)[C@@H]3O)[C@H](C)C[C@]3(CO3)C(=O)[C@H](C)[C@H](O)[C@H](C)[C@H](C)OC(=O)[C@@H]2C)O[C@@H](C)[C@H]1O	inactive

Incoming: Please let me know the test result on file for CCCN[C@@H](C)C(=O)Nc1ccccc1C .
Outgoing: inactive

Incoming: Please let me know the test result on file for O=c1[nH]cnc2c1ncn2C1OC(CO)C(O)C1O (stereo not given) .
Outgoing: inactive

Incoming: Please let me know the test result on file for O=C(Cc1cccs1)NC1C(=O)N2C(C(=O)[O-])=C(C[n+]3ccccc3)CSC12 (stereo not given) .
Outgoing: inactive

Incoming: Please let me know the test result on file for CCN[C@@H]1C[C@H](C)S(=O)(=O)c2sc(S(N)(=O)=O)cc21 .
Outgoing: inactive

Incoming: Please let me know the test result on file for O=C(c1ccccc1)c1ccc2n1CC[C@H]2C(=O)O .
Outgoing: inactive

Incoming: Please let me know the test result on file for CN[C@@H]1[C@H](O[C@@H]2O[C@H](CO)[C@@H](N)[C@H](O)[C@@H]2O)O[C@H]2C[C@@H](N)[C@@H](O[C@H]3[C@@H](O)[C@H](O)[C@H](N)C[C@@H]3N)O[C@H]2[C@H]1O .
Outgoing: inactive

Incoming: Please let me know the test result on file for COc1ccc(C[C@@H]2c3cc(OC)c(OC)cc3CC[N@+]2(C)CCC(=O)OCCCCCOC(=O)CC[N@@+]2(C)CCc3cc(OC)c(OC)cc3[C@H]2Cc2ccc(OC)c(OC)c2)cc1OC .
Outgoing: inactive

Incoming: Please let me know the test result on file for O=C(O)/C=C\c1ccc(Cn2ccnc2)cc1 .
Outgoing: inactive
